Measured pEC50, listed per entry.
Test system: SREBP-2
Assay: SREBP-2 expression in cultured primary human hepatocytes
Assay type: cell-based
Conditions: Homo sapiens, Hepatocyte, procedure of Example 6, read-out: SREBP-2 mRNA inhibition (EC50)
Excerpt: FIG. 9. Effects of HPN-01 on the expression of SREBP-1 (master regulator of hepatic glucose metabolism and fatty acid synthesis) and SREBP-2 (master regulator of cholesterol homeostasis in cells) in cultured primary human hepatocytes. […]
Schema: pEC50 number; meaning minus log10 of the concentration expressed in molar units.

Consider the following illustrative entries.
[
  {
    "smiles str": "NC(=O)c1cc(/C=C/c2cccc(F)c2)cc(-c2ccc(S(N)(=O)=O)cc2)c1N",
    "pEC50": 5.49
  },
  {
    "smiles str": "CC(C)OC(=O)c1ccc(-c2cc(C(N)=O)c(N)c(-c3ccc(S(N)(=O)=O)cc3)c2)cc1",
    "pEC50": 4.98
  }
]

Please fill in: pEC50 reported for NC(=O)c1cc(Oc2ccc(Cl)cc2)cc(-c2ccc(S(N)(=O)=O)cc2)c1N = 5.03

Please fill in: pEC50 reported for NC(=O)c1cc(-c2ccc(Cl)cc2)cc(N2CCN(S(N)(=O)=O)CC2)c1N = 5.42
